Property: binding signal; scope: individual sequences
TARGET_OF_ASSAY: GST-Aq-NF-kB (Amphimedon queenslandica, UniProt A9Y5G7 2-389)
Sequence: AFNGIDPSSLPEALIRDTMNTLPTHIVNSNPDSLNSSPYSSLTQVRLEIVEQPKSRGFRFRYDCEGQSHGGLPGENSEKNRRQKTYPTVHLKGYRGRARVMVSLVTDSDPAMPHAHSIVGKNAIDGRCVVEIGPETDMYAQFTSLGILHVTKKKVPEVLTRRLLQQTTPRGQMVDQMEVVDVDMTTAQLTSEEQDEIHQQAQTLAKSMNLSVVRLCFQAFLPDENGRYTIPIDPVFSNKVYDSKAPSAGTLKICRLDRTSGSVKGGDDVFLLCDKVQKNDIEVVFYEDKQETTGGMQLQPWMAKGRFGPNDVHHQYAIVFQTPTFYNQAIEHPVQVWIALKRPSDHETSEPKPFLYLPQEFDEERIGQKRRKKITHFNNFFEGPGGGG
PROCEDURE_TEXT: protein-binding microarray (PBM); PBM: ~300 nM protein, 6 mM HEPES pH 7.8, 80 mM KCl, 0.5 mM EDTA, 0.5 mM EGTA, 6% glycerol, 35 ng/ul poly-dIdC, 1% milk, 1 h, room temperature; Ap Aiptasia and Nv Nematostella (sea anemones) / Co Capsaspora / Aq Amphimedon (sponge) / Dm Drosophila / Hu human; RHD is the Rel homology domain; high values mean tight binding
TEST_CONTEXT: dsDNA, one strand shown
Your answer is read as z-score, so omit the unit and give the number.

Reference set (5 entries):
CCGATTAACATCAGGGACTCACCTGATGTTAATCGGGTCTTGATTCGCTTGACGCTGCTG	4.68
CCGATTAACATCAGAAAATGCCCTGATGTTAATCGGGTCTTGATTCGCTTGACGCTGCTG	3.47
CCGATTAACATCAATGGGTTTCCTGATGTTAATCGGGTCTTGATTCGCTTGACGCTGCTG	1.07
CCGATTAACATCAGGAATATACCTGATGTTAATCGGGTCTTGATTCGCTTGACGCTGCTG	1.69
CCGATTAACATCAGGGGGGGGCATGATGTTAATCGGGTCTTGATTCGCTTGACGCTGCTG	3.82

Please fill in: binding signal reported for CCGATTAACATCAGGGATTTACCTGATGTTAATCGGGTCTTGATTCGCTTGACGCTGCTG = 6.8

Given item CCGATTAACATCAAAATCCCAGTTGATGTTAATCGGGTCTTGATTCGCTTGACGCTGCTG , the value recorded as its binding signal is 1.75

Quick note, binding signal for CCGATTAACATCAGGGGAAAGTATGATGTTAATCGGGTCTTGATTCGCTTGACGCTGCTG landed at 5.82

GET /value?item= CCGATTAACATCAGGCAGTTCCCTGATGTTAATCGGGTCTTGATTCGCTTGACGCTGCTG &field=binding signal returns 3.41
